Recorded values, source patent US20260014146A1.

# study-system: CDK2/Cyclin E1 (Homo sapiens (Human), UniProt P24941)
# experimental-protocol: ADP-Glo Luminescent Kinase Assay, ADPGLO (CDK2/E1-37C)
# Type: biochemical
# details: 0.18 nM CDK2/Cyclin E1, 100 μM ATP, 1.5 μM Histone H1, 37° C.; read-out: Pharmaron ADPGLO (CDK2/E1-37C): IC50
pIC50: −log10 of the molar value.
Each entry below carries its reported pIC50.
parameter-measured: pIC50

| compound | study-system | parameter-measured | result |
| --- | --- | --- | --- |
| C[C@@H](OCC12CCC(CC1)OC2)[C@H](NC(=O)[C@@H]1CN(c2cc(F)cc3nccnc23)CC12CN(C(=O)C1(C(F)(F)F)CC1)C2)C(=O)N1CCC(c2nccs2)CC1 [Compound I-44] | CDK2/Cyclin E1 (Homo sapiens (Human), UniProt P24941) | pIC50 | 5.30 to 6.30 |
| C[C@@H](OCC12CCC(CC1)OC2)[C@@H](COC1CCC(c2ccc(C(=O)O)cc2)CC1)NC(=O)[C@@H]1CN(c2cc(F)cc3ncsc23)CC12CN(C(=O)C1(C(F)(F)F)CC1)C2 (some centres unmarked) [Compound I-47] | CDK2/Cyclin E1 (Homo sapiens (Human), UniProt P24941) | pIC50 | < 5.00 |
| C[C@@H](OCC12CCC(CC1)OC2)[C@H](NC(=O)[C@@H]1CN(c2cc(F)cc3ncoc23)CC12CN(C(=O)C1(C(F)(F)F)CC1)C2)C(=O)N1CCC(c2nccs2)CC1 [Compound I-52] | CDK2/Cyclin E1 (Homo sapiens (Human), UniProt P24941) | pIC50 | 5.00 to 5.30 |
| C[C@@H](OCC12CCC(CC1)OC2)[C@H](NC(=O)[C@@H]1CN(c2cc(F)cc3ncsc23)CC12CN(C(=O)C1(C(F)(F)F)CC1)C2)C(=O)NS(=O)(=O)c1ccc(F)cc1F [Compound I-51] | CDK2/Cyclin E1 (Homo sapiens (Human), UniProt P24941) | pIC50 | 5.00 to 5.30 |
| C[C@@H](OCC12CCC(CC1)OC2)[C@@H](COC1CCC(c2ccccc2C(=O)O)CC1)NC(=O)[C@@H]1CN(c2cc(F)cc3ncsc23)CC12CN(C(=O)C1(C(F)(F)F)CC1)C2 (some centres unmarked) [Compound I-53] | CDK2/Cyclin E1 (Homo sapiens (Human), UniProt P24941) | pIC50 | < 5.00 |

---

# study-system: CDK2/Cyclin E1 (Homo sapiens (Human), UniProt P24941)
# experimental-protocol: Caliper LabChip EZ Reader mobility shift assay
# Assay type: biochemical
# details: 2.5 nM CDK2/Cyclin E1 (14-475), 100 μM ATP, 1.5 μM fluorescent peptide; read-out: Caliper Assay (CDK2/CCNE1): IC50
parameter-measured: IC50

| molecule | parameter-measured | result |
| --- | --- | --- |
| C[C@@H](OCC1(CO)CC=CCC1)[C@H](NC(=O)[C@@H]1CN(c2ncnc3ncsc23)CC12CN(C(=O)[C@H]1CC1(C)C)C2)C(=O)N1CC2(CCOCC2)C1 (some centres unmarked) [Compound I-37] | IC50 | 0.1 to 1 µM |
| COC[C@H]1CCCN(C(=O)C(NC(=O)[C@@H]2CN(c3nc(C(F)(F)F)cs3)CC23CN(C(=O)[C@H]2CC2(C)C)C3)[C@@H](C)OCC23CCC(CC2)OC3)C1 (stereo in doubt) [Compound I-17] | IC50 | > 10 µM |
| C[C@@H](OCC12CCC(CC1)OC2)[C@H](NC(=O)[C@@H]1CN(c2nccc3ncsc23)CC12CN(C(=O)[C@H]1CC1(C)C)C2)C(=O)N(C)C [Compound I-23] | IC50 | 1 to 10 µM |
| C[C@@H](OCC1CCCCC1)[C@H](NC(=O)[C@@H]1CN(c2nccc3scnc23)CC12CN(C(=O)[C@H]1CC1(C)C)C2)C(=O)N1CCCCC1 [Compound I-10] | IC50 | > 10 µM |
| C[C@@H](OCC12CCC(CC1)OC2)[C@H](NC(=O)[C@@H]1CN(c2cccc3ncsc23)CC12CN(C(=O)[C@H]1CC1(C)C)C2)C(=O)N(C)C [Compound I-22] | IC50 | 1 to 10 µM |
